Each entry below carries its recorded z-score.
Assay: JC-1 mitochondrial signal, unstimulated MM1S myeloma – cell-based, JC-1 fluorescence, 24 h, 100 nL compound, profiling panel (AID 1170); also: test concentration not given here
Details: MM1S mitochondrial potential, higher = more signal

| COMPOUND | z-score |
| --- | --- |
| O=C1C[C@@](C(=O)NCc2ccccc2)(c2ccc([N+](=O)[O-])cc2)[C@@H](c2ccc(CO)cc2)N1C1CCCCC1 | 0.242 |
| C=CCC(OC(C)=O)[C@@H]1[C@@H](N(Cc2cccc3ccccc23)C(=O)Cc2ccc(OC)cc2)c2cc(OCCCO)ccc2N1C(=O)c1ccc2ccccc2c1 (stereo partly specified) | 0.433 |
| C=CCN1C(=O)[C@@]2(O[C@@H](CCn3cc([C@H](O)c4ccccc4)nn3)[C@H]([Si](C)(C)c3ccc(OC)cc3)[C@H]2C)c2cc(N3C(=O)c4cccc5cccc3c45)ccc21 | -1.37 |
| CC(C)C[C@H]1NC(=O)C([C@@H](C)OCc2ccccc2)NC(=O)[C@@]23C(=O)N[C@@H](Cc4ccccc4)C2[C@H](C)[C@@]2(C)O[C@H]2C3/C=C/C/C=C\CNC1=O (stereo partly specified) | 0.277 |
| Cc1ccc(S[C@]2(C(=O)NCCCN(C)C)CC(=O)N(C3Cc4ccccc4C3)[C@@H]2c2ccc(CO)cc2I)cc1 | -1.09 |
| COc1ccc([Si](C)(C)[C@H]2[C@H](CC(=O)N3Cc4ccccc4C[C@H]3CO)O[C@@]3(C(=O)N(C)c4ccccc43)[C@@H]2C)cc1 | -0.748 |
